biological target: T1, human IgG1 (human, UniProt P01857-1 1-330 = IgG part); assay: fluorescence anisotropy; pH 5.7, 15% ethylene glycol
T1 construct: Calbiochem; human plasma IgG1 in anisotropy studies, myeloma-derived (cat. 400120) in batch/column studies; also called hIgG1
T1 sequence (P01857 other isoform, or with tags, fused parts or gaps): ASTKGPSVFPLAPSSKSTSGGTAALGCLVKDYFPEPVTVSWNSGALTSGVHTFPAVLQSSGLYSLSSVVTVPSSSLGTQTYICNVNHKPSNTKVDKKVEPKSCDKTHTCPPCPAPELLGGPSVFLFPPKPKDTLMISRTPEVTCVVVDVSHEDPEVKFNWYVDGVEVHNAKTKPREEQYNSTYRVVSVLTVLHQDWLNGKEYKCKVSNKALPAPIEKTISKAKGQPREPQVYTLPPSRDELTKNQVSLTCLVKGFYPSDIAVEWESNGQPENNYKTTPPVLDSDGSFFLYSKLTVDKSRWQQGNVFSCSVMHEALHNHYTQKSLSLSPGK
Positions of bridges follow the written chain, without caps; N, C: chain ends.
METRIC_NAME: Kd

Ac-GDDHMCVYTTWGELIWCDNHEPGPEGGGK-NH2 (disulfide 6-17 (inferred), Synthetic disulfide-cyclised peptide) [DX249] ... 80 nM
